B1: Zinc finger homeobox protein 4, residues 2562 to 2617; numbered along this chain, Q86UP3 (parent)
chain: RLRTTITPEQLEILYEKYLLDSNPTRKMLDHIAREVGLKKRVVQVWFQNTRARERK

- Variants of: B1
- experimentalDetails: abundance fitness (aPCA) (normalised: wild type 0, dead -1); higher = more abundant; growth selection in yeast, the domain comes from the species named
- conditionNotes: Homo sapiens
recordedEndpoint: abundance fitness
Please give the numeric answer without any surrounding text.

Task: Which abundance fitness value is on record for `R34I` ?
Result: -0.43

Task: Another variant: `H31I`
Result: 0.205

Task: Try the variant `L19S`
Result: -0.034

Task: Okay, and `K27C` ?
Result: -0.096

Task: Let us now turn to `S22P`
Result: -0.402
